test system: spontaneously hypertensive male rats, strain MHS; assay: Anti-hypertensive activity in the spontaneously hypertensive rat (MHS): blood pressure and heart rate at the tail; assay type: in vivo; details: 5 mg/kg os, fourth day, 5 hrs after dose
Please use criterion met whenever Change in BP, 5 hrs after dose, fourth day is not below -30 mm Hg, and criterion not met whenever it is.

Please review the following examples before continuing.
QUERY: Is Change in BP, 5 hrs after dose, fourth day at least -30 mm Hg? Consider C=CCN1C[C@H](CC(C#N)C(N)=O)C[C@@H]2c3cccc4[nH]cc(c34)C[C@H]21 (some centres unmarked)
RESULT: criterion not met

QUERY: Is Change in BP, 5 hrs after dose, fourth day at least -30 mm Hg? Consider CN1C[C@H](CC(C#N)C(N)=O)C[C@@H]2c3cccc4[nH]c(Br)c(c34)C[C@H]21 (some centres unmarked)
RESULT: criterion met

QUERY: Is Change in BP, 5 hrs after dose, fourth day at least -30 mm Hg? Consider CN1C[C@H](CC(C#N)C(N)=O)C[C@@H]2c3cccc4[nH]cc(c34)C[C@H]21 (some centres unmarked)
RESULT: criterion not met

QUERY: Is Change in BP, 5 hrs after dose, fourth day at least -30 mm Hg? Consider C=CCN1C[C@H](CC(C#N)C(=O)NCC)C[C@@H]2c3cccc4[nH]cc(c34)C[C@H]21 (some centres unmarked)
RESULT: criterion met

QUERY: Is Change in BP, 5 hrs after dose, fourth day at least -30 mm Hg? Consider NNc1nncc2ccccc12 [Hydralazine, hydralazine, reference compound]
RESULT: criterion met

Others:
QUERY: Is Change in BP, 5 hrs after dose, fourth day at least -30 mm Hg? Consider CN1C[C@H](CC(C#N)C(=O)N2CCCC2)C[C@@H]2c3cccc4[nH]cc(c34)C[C@H]21 (some centres unmarked)
RESULT: criterion met

QUERY: Is Change in BP, 5 hrs after dose, fourth day at least -30 mm Hg? Consider CCNC(=O)C(C#N)C[C@@H]1C[C@@H]2c3cccc4[nH]cc(c34)C[C@H]2N(C)C1 (some centres unmarked)
RESULT: criterion met

QUERY: Is Change in BP, 5 hrs after dose, fourth day at least -30 mm Hg? Consider CCNC(=O)C(C#N)CC1CC2c3cccc4[nH]cc(c34)CC2N(CC2CC2)C1 (centres unmarked)
RESULT: criterion not met

QUERY: Is Change in BP, 5 hrs after dose, fourth day at least -30 mm Hg? Consider CC(C)N1C[C@H](CC(C#N)C(N)=O)C[C@@H]2c3cccc4[nH]cc(c34)C[C@H]21 (some centres unmarked)
RESULT: criterion not met

QUERY: Is Change in BP, 5 hrs after dose, fourth day at least -30 mm Hg? Consider CN1C[C@H](CC(C#N)C(=O)NCc2ccccc2)C[C@@H]2c3cccc4[nH]cc(c34)C[C@H]21 (some centres unmarked)
RESULT: criterion met

QUERY: Is Change in BP, 5 hrs after dose, fourth day at least -30 mm Hg? Consider CCCN1C[C@H](CC(C#N)C(=O)NCC)C[C@@H]2c3cccc4[nH]cc(c34)C[C@H]21 (some centres unmarked)
RESULT: criterion not met

QUERY: Is Change in BP, 5 hrs after dose, fourth day at least -30 mm Hg? Consider CCNC(=O)C(C#N)C[C@@H]1C[C@@H]2c3cccc4[nH]cc(c34)C[C@H]2N(C(C)C)C1 (some centres unmarked)
RESULT: criterion met

Where do these numbers come from? They come from patent US4321381A.
